protocol: yeast display, Sf9 membrane polyspecificity reagent, FACS + sequencing; frameworks hold sequencing errors
measurementKind: polyreactivity (PSR sort gate)

See these solved cases before continuing.
QVQLVESGGGLVQAGGSLRLSCAASGFTFGRYAMGWYRQAPGKERELVAAISFSGGRTYYADSVKGRFTISRDNAKNTVYLQMNSLKPEDTAVYYCAARRRQEHVGRSSYARYDYWGQGTQVTVSS | high polyreactivity
QVQLVESGGGLVQAGGSLRLSCAASGSIFSQYAMGWYRQAPGTERDFVAAINWSGGRTRYADSVKGRFTISRDNAKNTVYLQMNSLKPEDTAVYYCAKVYSLYSYSGRYDYWGQGTQVTVSS | high polyreactivity
QVQLVESGGGLVQAGGSLRLSCAASGRIFRRYAMGWYRQAPGKERELVAALTRSGGSTYYADSVKGRFTISRDNAKNTVYLQMNSLKPEDTAVYYCYAPSSLGTDYDYWGQGTQVTVSS | high polyreactivity
QVQLVESGGGLVQEGGSLRLSCSASGSIFYVYAMGRYRPARGKDRELVAAISSIDGNTYYADSVKGRFTISRDNAKNTVYLQMNSLKPEETAVYYCAAAYYNTDYYYWGKGTQVTVSS | low polyreactivity
QVQLVESGGGLVQAGGSLRLSCAASGRTFRYNALGWYRPAPGKERELVASITSGGSTNYADSVKGRFTMSRDNAKNTVYLQMNSLKPEDTAVYYCASDERRPYWQHSIGSGRPFDYWGQGTQVTVSS | low polyreactivity

Quick check: polyreactivity (PSR sort gate) of "QVQLQESGGGLVQAGGSLRLSCAASGYISSWYPKGWYRQAPGQEREFVATIAPGATTYYADSVKGRFTMSRDYAKNTVYLQMNSLKPEDTAVYYCAAGPENNDFYSYWGQGTQVTVSS" ?
low polyreactivity

Same thing, different sequence: "QVLLQESGGGLVQAGGSLRLSCAASGTISTDIRMGWYRLAPGKEREFVASIDGCSTTYYADSVKGRFTISRDNAKNTVYLQMNSLKPEDTEMYYCAAREATEFYLYYWGQGTQVTVSS"
low polyreactivity

Same thing, different sequence: "QVQLVETGGGLVQAGGSLRLSCAASGLTFYDYAMGWYRQAPGKERELVADIDFNGGSTSYADSVKGRFTISRDNAKNTVYLQMNSLKPEDTAVYDCNTRDRGDVVTGLDYWGQGTQVTVSS"
low polyreactivity

Same thing, different sequence: "QVQLVESGGGLVQAGGSLRLSCAASGRIIGRYAMGWYRQAPGKERELVAGITIRGGSTYYADSVKGRITISRDNAKNTVYLQMNSLKPEDTAVYYCAADDKGGLAVEYDYWGQGTQVTVSS"
low polyreactivity

Same thing, different sequence: "QVQLVESGGGLVQAGGSLRLSCAASGSTFPHYAMGWYRQAPGKERELVAAISWSGSSTYYADSVKGRFTISRDNAKNTVYLQMNSLKPEDTAVYYCNKLPRRAPQFTYDYWGQGTLVTVSS"
high polyreactivity

Origin of the recorded values: the nanobody polyreactivity screen of Harvey et al. (2022)
